Target Of Assay: Nuclear receptor subfamily 5 group A member 2 (Homo sapiens)
Sequence (O00482 whole entry): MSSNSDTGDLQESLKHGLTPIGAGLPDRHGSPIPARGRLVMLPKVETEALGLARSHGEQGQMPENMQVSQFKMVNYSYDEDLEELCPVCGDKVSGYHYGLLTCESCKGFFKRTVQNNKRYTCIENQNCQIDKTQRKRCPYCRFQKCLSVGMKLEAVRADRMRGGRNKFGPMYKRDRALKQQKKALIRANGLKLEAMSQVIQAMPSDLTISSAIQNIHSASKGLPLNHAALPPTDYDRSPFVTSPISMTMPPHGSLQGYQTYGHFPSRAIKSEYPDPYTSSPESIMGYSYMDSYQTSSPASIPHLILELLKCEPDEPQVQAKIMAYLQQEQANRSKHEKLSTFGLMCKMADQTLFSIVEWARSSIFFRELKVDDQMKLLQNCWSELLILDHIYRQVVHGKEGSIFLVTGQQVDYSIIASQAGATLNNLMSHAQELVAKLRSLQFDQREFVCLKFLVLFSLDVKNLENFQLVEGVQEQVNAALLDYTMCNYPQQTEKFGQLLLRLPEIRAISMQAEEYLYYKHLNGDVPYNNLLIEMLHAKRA
Assay Explanation: Binding affinity to human LRH1 relative to 3-(E-Oct-4-en-4-yl)-1-phenylamino-2-phenyl-cis-bicyclo[3.3.0]oct-2-ene by FRET-based peptide recruitment assay
Attribute Measured: Efficacy (%)
Give bare numbers, in %.

CCCCCCC1=C(c2ccccc2)[C@]2(Nc3cccc4ccccc34)CCC[C@@H]2C1 (relative stereo)    45
c1ccc(N[C@@]23CCC[C@@H]2CC(C2CCCCC2)=C3c2ccccc2)cc1 (relative stereo)    25
CC1=C(c2ccccc2)[C@]2(Nc3ccccc3)CCC[C@@H]2C1 (relative stereo)    20

For the 4 compounds below, give their Efficacy values.
1. CCCCC(C)C1=C(c2ccccc2)[C@]2(Nc3ccccc3)CCC[C@@H]2C1 (relative stereo)
2. CCC/C=C(\CCC)C1=C(c2ccc3ccccc3c2)[C@]2(Nc3ccccc3)CCC[C@@H]2C1 (relative stereo)
3. CCCCCCC1=C(c2ccccc2)[C@]2(Nc3cccc(C)c3C)CCC[C@@H]2C1 (relative stereo)
4. CCC/C=C(\CCC)C1=C(CCCC)[C@]2(Nc3ccccc3)CCC[C@@H]2C1 (relative stereo)

Response:
[45, 55, 30, 50]

For the 6 compounds below, give their Efficacy values.
1. CCC/C=C(\CCC)C1=C(c2cccc(OC)c2)[C@]2(Nc3ccccc3)CCC[C@@H]2C1 (relative stereo)
2. CCCCCCC1=C(c2ccccc2)[C@]2(Nc3ccc(Cl)cc3)CCC[C@@H]2C1 (relative stereo)
3. CCCCCCC1=C(c2ccccc2)[C@]2(Nc3ccccc3)CCC[C@@H]2C1 (relative stereo)
4. CCC/C=C(\CCC)C1=C(C)[C@]2(Nc3ccccc3)CCC[C@@H]2C1
5. CCCCCCCCC(C)C1=C(c2ccccc2)[C@]2(Nc3ccccc3)CCC[C@@H]2C1 (relative stereo)
6. CC/C=C(\CC)C1=C(c2ccccc2)[C@]2(Nc3ccccc3)CCC[C@@H]2C1 (relative stereo)

Response:
1: 115; 2: 15; 3: 45; 4: 15; 5: 25; 6: 50

For the 3 compounds below, give their Efficacy values.
1. CCC/C=C(\CCC)C1=C(c2ccc(Br)cc2)[C@]2(Nc3ccccc3)CCC[C@@H]2C1 (relative stereo)
2. CCCCCCC1=C(c2ccccc2)[C@]2(Nc3cccc(F)c3)CCC[C@@H]2C1 (relative stereo)
3. c1ccc(N[C@@]23CCC[C@@H]2CC(c2ccccc2)=C3c2ccccc2)cc1 (relative stereo)

Response:
1: 70; 2: 45; 3: 35

Request: Look up and state reported Efficacy for CCC/C=C(\CCC)C1=C(C2CCCCC2)[C@]2(Nc3ccccc3)CCC[C@@H]2C1 (relative stereo)
Response: 50

###

Target Of Assay: Steroidogenic factor 1 (Homo sapiens, UniProt Q13285)
Sequence (Q13285 whole entry): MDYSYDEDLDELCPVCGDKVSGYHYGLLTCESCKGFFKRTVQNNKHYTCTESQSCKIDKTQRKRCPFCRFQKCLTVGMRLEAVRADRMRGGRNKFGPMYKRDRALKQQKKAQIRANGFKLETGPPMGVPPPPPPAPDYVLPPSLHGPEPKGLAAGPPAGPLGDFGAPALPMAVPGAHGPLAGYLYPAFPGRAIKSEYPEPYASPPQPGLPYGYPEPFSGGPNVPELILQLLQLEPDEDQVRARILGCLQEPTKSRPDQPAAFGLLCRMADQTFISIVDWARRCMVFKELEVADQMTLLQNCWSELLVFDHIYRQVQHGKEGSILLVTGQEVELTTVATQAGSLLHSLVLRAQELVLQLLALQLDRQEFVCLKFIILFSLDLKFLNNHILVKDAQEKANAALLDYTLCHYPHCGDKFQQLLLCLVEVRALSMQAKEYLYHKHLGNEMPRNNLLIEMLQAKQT
Assay Explanation: Binding affinity to human SF1 by FRET-based peptide recruitment assay
Please respond with reported pEC50 for every item in the list.
One number for each entry, as −log10 of the molar value.

CCC/C=C(\CCC)C1=C(C2CCCCC2)[C@]2(Nc3ccccc3)CCC[C@@H]2C1 (relative stereo)    8.00

The record that follows has no pEC50 shown yet.
Request: Look up and state reported pEC50 for CCC/C=C(\CCC)C1=C(c2ccc3ccccc3c2)[C@]2(Nc3ccccc3)CCC[C@@H]2C1 (relative stereo)
Response: 6.89

###

Target Of Assay: Steroidogenic factor 1 (Homo sapiens, UniProt Q13285)
Assay Explanation: Binding affinity to human SF1 by FRET-based peptide recruitment assay
Attribute Measured: pEC50
One number for each entry, as −log10 of the molar value.

Observe how each entry below is paired with its result.
c1ccc(N[C@@]23CCC[C@@H]2CC(c2ccccc2)=C3c2ccccc2)cc1 (relative stereo)    6.92
CCCCC(C)C1=C(c2ccccc2)[C@]2(Nc3ccccc3)CCC[C@@H]2C1 (relative stereo)    6.89
CCCCCCC1=C(c2ccccc2)[C@]2(Nc3cccc(C)c3C)CCC[C@@H]2C1 (relative stereo)    7.96
CC/C=C(\CC)C1=C(c2ccccc2)[C@]2(Nc3ccccc3)CCC[C@@H]2C1 (relative stereo)    6.10

For the 7 molecules below, give their pEC50 values.
1. CCC/C=C(\CCC)C1=C(c2cccc(OC)c2)[C@]2(Nc3ccccc3)CCC[C@@H]2C1 (relative stereo)
2. c1ccc(N[C@@]23CCC[C@@H]2CC(C2CCCCC2)=C3c2ccccc2)cc1 (relative stereo)
3. CCC/C=C(\CCC)C1=C(c2ccc(Br)cc2)[C@]2(Nc3ccccc3)CCC[C@@H]2C1 (relative stereo)
4. CCCCCCC1=C(c2ccccc2)[C@]2(Nc3ccc(Cl)cc3)CCC[C@@H]2C1 (relative stereo)
5. CCCCCCCCC(C)C1=C(c2ccccc2)[C@]2(Nc3ccccc3)CCC[C@@H]2C1 (relative stereo)
6. CCCCCCC1=C(c2ccccc2)[C@]2(Nc3cccc(F)c3)CCC[C@@H]2C1 (relative stereo)
7. CCCCC/C=C(\CCCCC)C1=C(c2ccccc2)[C@]2(Nc3ccccc3)CCC[C@@H]2C1 (relative stereo)

Response:
1. 6.85
2. 6.74
3. 6.77
4. 6.15
5. 6.89
6. 6.25
7. 7.85

Request: Look up and state reported pEC50 for CCC/C=C(\CCC)C1=C(CCCC)[C@]2(Nc3ccccc3)CCC[C@@H]2C1 (relative stereo)
Response: 7.52
